Data credit: paper PMC5651845

- Method Description: PAMPA with porcine brain lipids (BBB permeation)
- Conditions: pig, pH 7.4
Reported Endpoint: Papp at 16 h, 50 µM (×10⁻⁶ cm/s)
Give the quantity in ×10⁻⁶ cm/s, number only.

Asked: Item under review: CCCCC/C=C\C/C=C\C/C=C\C/C=C\CCCCC(=O)Nc1cccc(C(=O)O)c1 [2i] . Reported Papp at 16 h, 50 µM?
Given back: 12.3

====

- Target System: recombinant cPLA2 (Homo sapiens, UniProt P47712)
- Construct: purchased US Biological P4074-03R
- Sequence (P47712 1-749): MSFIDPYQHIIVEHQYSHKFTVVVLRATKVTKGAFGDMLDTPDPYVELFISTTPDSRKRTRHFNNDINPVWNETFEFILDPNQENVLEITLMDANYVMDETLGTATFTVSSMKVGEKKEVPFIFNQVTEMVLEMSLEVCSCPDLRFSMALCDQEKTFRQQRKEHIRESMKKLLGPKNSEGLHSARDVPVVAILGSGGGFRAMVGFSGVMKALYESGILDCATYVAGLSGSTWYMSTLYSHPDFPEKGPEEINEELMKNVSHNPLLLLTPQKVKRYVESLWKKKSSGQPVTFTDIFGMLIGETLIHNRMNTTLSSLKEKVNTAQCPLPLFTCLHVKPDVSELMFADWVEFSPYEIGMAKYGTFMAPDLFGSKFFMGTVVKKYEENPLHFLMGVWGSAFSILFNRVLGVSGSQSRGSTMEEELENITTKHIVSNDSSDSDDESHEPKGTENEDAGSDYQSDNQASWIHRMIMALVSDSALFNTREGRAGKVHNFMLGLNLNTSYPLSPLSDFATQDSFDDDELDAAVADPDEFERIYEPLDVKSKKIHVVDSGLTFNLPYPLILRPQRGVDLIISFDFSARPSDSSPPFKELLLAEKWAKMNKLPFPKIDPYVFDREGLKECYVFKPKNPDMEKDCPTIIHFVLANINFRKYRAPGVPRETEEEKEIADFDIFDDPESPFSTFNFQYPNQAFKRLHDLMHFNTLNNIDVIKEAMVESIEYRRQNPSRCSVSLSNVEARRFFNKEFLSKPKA
- Method Description: EnzChek phospholipase A2 fluorogenic assay (% activity) at 10 μM
- Format: biochemical
- Conditions: 10 μM compound
Assignment: determine reported inhibition at 10 µM for the given compounds.
Give the quantity in %, number only.

Asked: Item under review: CCCCC/C=C\C/C=C\C/C=C\C/C=C\CCCC(=O)Nc1ccc(C(=O)O)cc1 [2n] . Reported inhibition at 10 µM?
Given back: 66.7

Asked: Now consider CCCCC/C=C\C/C=C\C/C=C\C/C=C\CCCCCC(=O)NCCCCC(=O)O [2k] and answer again.
Given back: 62.3

Asked: Now consider O=C(CCC/C=C\C/C=C\C/C=C\C/C=C\c1ccccc1)C(F)(F)F [1d] and answer again.
Given back: 68.2

Asked: Now consider CCCCC/C=C\C/C=C\C/C=C\C/C=C\CCCC(=O)Nc1ccccc1C(=O)O [2o] and answer again.
Given back: 34.5

Asked: Now consider CCCCC/C=C\C/C=C\C/C=C\C/C=C\CCCC(=O)Nc1ccc(C(N)=O)cc1 [2l] and answer again.
Given back: 32.6

Asked: Now consider CCCCCCCC/C=C\C/C=C\C/C=C\C/C=C\CCCC(=O)C(F)(F)F [1c] and answer again.
Given back: 55
